Provide the recorded Ki for the entries that follow.
Quick reminder: number only, in µM, skip the unit.

Observed Ki, Plasminogen (Homo sapiens, UniProt P00747), "N=C(N)c1ccc(CNC(=O)CNC(=O)[C@@H](CO)NS(=O)(=O)CC2CCCCC2)cc1" : 17

Observed Ki, Plasminogen (Homo sapiens, UniProt P00747), "N=C(N)c1ccc(CNC(=O)CNC(=O)[C@@H](CO)NS(=O)(=O)CCc2ccccc2)cc1" : 59

Observed Ki, Plasminogen (Homo sapiens, UniProt P00747), "N=C(N)c1ccc(CNC(=O)CNS(=O)(=O)c2ccc3ccccc3c2)cc1" : 43

====

Target: Urokinase-type plasminogen activator (Homo sapiens, UniProt P00749)
Test: In vitro inhibition of plasminogen activator urokinase.
Provide the recorded pKi for the entries that follow.
// pKi here means minus log10 of the molar concentration (mol/L)

pKi recorded for this molecule, CC(C)(C)OC(=O)NC(CCC(=O)O)C(=O)NCC(=O)NCc1ccc(C(=N)N)cc1 (stereo not given) , is 4.09

pKi recorded for this molecule, "CC(C)c1cc(S(=O)(=O)N[C@H](CO)C(=O)NCC(=O)NCc2ccc(C(=N)N)cc2)cc(C(C)C)c1C(C)C" , is 5.82

pKi recorded for this molecule, "CC(C)(C)OC(=O)N[C@H](CO)C(=O)NCC(=O)NCc1ccc(C(=N)N)cc1" , is 5.05

pKi recorded for this molecule, "N=C(N)c1ccc(CNC(=O)CNC(=O)[C@@H](CO)NC(=O)OCc2ccccc2)cc1" , is 5.40

pKi recorded for this molecule, CC(NS(=O)(=O)c1ccc2ccccc2c1)C(=O)NCc1ccc(C(=N)N)cc1 (single isomer, unassigned; (-)) , is 5.02

pKi recorded for this molecule, "N=C(N)c1ccc(CNC(=O)CNC(=O)[C@@H](CO)NS(=O)(=O)c2ccc3ccccc3c2)cc1" , is 5.92

pKi recorded for this molecule, "N=C(N)c1ccc(CNC(=O)CNC(=O)[C@@H](CO)NS(=O)(=O)/C=C/c2ccccc2)cc1" , is 5.66

pKi recorded for this molecule, "N=C(N)c1ccc(CNC(=O)CNC(=O)[C@@H](CO)NS(=O)(=O)CCc2ccccc2)cc1" , is 6.31

pKi recorded for this molecule, "CC(C)COC(=O)OC[C@@H](NS(=O)(=O)Cc1ccccc1)C(=O)N[C@@H](C)C(=O)NCc1ccc(C(=N)N)cc1" , is 7.37

pKi recorded for this molecule, "N=C(N)c1ccc(CNC(=O)CNC(=O)[C@@H](N)CCC(=O)O)cc1" , is 4.66

====

outcome_measure: Ki (µM)
Quick reminder: number only, in µM, skip the unit.

Observed Ki, Plasminogen (Homo sapiens, UniProt P00747), "CC(C)COC(=O)OC[C@@H](NS(=O)(=O)Cc1ccccc1)C(=O)NCC(=O)NCc1ccc(C(=N)N)cc1" : 2.4

Observed Ki, Plasminogen (Homo sapiens, UniProt P00747), "N=C(N)c1ccc(CNC(=O)CNC(=O)[C@@H](CO)NC(=O)OCc2ccccc2)cc1" : 160

Observed Ki, Plasminogen (Homo sapiens, UniProt P00747), "C[C@H](NC(=O)[C@@H](CO)NS(=O)(=O)Cc1ccccc1)C(=O)NCc1ccc(C(=N)N)cc1" : 0.54

====

Molecular target: UniProtKB P00734
pKi: −log10 of the molar value.
Note to self: values exactly at 4 are true. So pKi at or above 4 is true, below is false.

Problem: Threshold query (pKi >= 4) on "CC(=O)N[C@H](CO)C(=O)NCC(=O)NCc1ccc(C(=N)N)cc1"
Result: false

Problem: Threshold query (pKi >= 4) on "N=C(N)c1ccc(CNC(=O)CNC(=O)[C@@H](N)CO)cc1"
Result: false

Problem: Threshold query (pKi >= 4) on CC(C)(C)OC(=O)NC(CCC(=O)O)C(=O)NCC(=O)NCc1ccc(C(=N)N)cc1 (configuration not stated)
Result: false

Problem: Threshold query (pKi >= 4) on "N=C(N)c1ccc(CNC(=O)CNC(=O)[C@@H](CO)NS(=O)(=O)Cc2ccccc2)cc1"
Result: true

Problem: Threshold query (pKi >= 4) on "N=C(N)c1ccc(CNC(=O)CNC(=O)[C@@H](CO)NS(=O)(=O)CCc2ccccc2)cc1"
Result: true

Problem: Threshold query (pKi >= 4) on "N=C(N)c1ccc(CNC(=O)CNC(=O)[C@@H](CO)NC(=O)OCc2ccccc2)cc1"
Result: false

Problem: Threshold query (pKi >= 4) on "CC(C)(C)OC(=O)N[C@H](CO)C(=O)NCC(=O)NCc1ccc(C(=N)N)cc1"
Result: false

Problem: Threshold query (pKi >= 4) on "N=C(N)c1ccc(CNC(=O)CNC(=O)[C@@H](CO)NS(=O)(=O)/C=C/c2ccccc2)cc1"
Result: true

Problem: Threshold query (pKi >= 4) on "N=C(N)c1ccc(CNC(=O)CNC(=O)[C@@H](CO)NS(=O)(=O)c2ccc3ccccc3c2)cc1"
Result: true

Problem: Threshold query (pKi >= 4) on "CC(C)COC(=O)OC[C@@H](NS(=O)(=O)Cc1ccccc1)C(=O)N[C@@H](C)C(=O)NCc1ccc(C(=N)N)cc1"
Result: true

Problem: Threshold query (pKi >= 4) on "CC(C)COC(=O)OC[C@@H](NS(=O)(=O)Cc1ccccc1)C(=O)NCC(=O)NCc1ccc(C(=N)N)cc1"
Result: true

Problem: Threshold query (pKi >= 4) on "N=C(N)c1ccc(CNC(=O)CNS(=O)(=O)c2ccc3ccccc3c2)cc1"
Result: true

====

Provide the recorded Ki for the entries that follow.

Observed Ki, Coagulation factor X (Homo sapiens, UniProt P00742), "N=C(N)c1ccc(CNC(=O)CNC(=O)[C@@H](CO)NS(=O)(=O)CCc2ccccc2)cc1" : 28 µM

Observed Ki, Coagulation factor X (Homo sapiens, UniProt P00742), CC(C)(C)OC(=O)NC(CCC(=O)O)C(=O)NCC(=O)NCc1ccc(C(=N)N)cc1 (centres undefined) : > 1000 µM

Observed Ki, Coagulation factor X (Homo sapiens, UniProt P00742), "CC(C)(C)OC(=O)N[C@@H](CO)C(=O)NCC(=O)NCc1ccc(C(=N)N)cc1" : 110 µM

Observed Ki, Coagulation factor X (Homo sapiens, UniProt P00742), "N=C(N)c1ccc(CNC(=O)CNC(=O)[C@@H](CO)NS(=O)(=O)CC2CCCCC2)cc1" : 2 µM

Observed Ki, Coagulation factor X (Homo sapiens, UniProt P00742), "CC(C)c1cc(S(=O)(=O)N[C@H](CO)C(=O)NCC(=O)NCc2ccc(C(=N)N)cc2)cc(C(C)C)c1C(C)C" : 100 µM

Observed Ki, Coagulation factor X (Homo sapiens, UniProt P00742), "N=C(N)c1ccc(CNC(=O)CNC(=O)[C@@H](N)CCC(=O)O)cc1" : > 1000 µM

Observed Ki, Coagulation factor X (Homo sapiens, UniProt P00742), "N=C(N)c1ccc(CNC(=O)CNC(=O)[C@@H](CO)NC(=O)OCc2ccccc2)cc1" : 140 µM

Observed Ki, Coagulation factor X (Homo sapiens, UniProt P00742), "C[C@H](NC(=O)[C@@H](CO)NS(=O)(=O)Cc1ccccc1)C(=O)NCc1ccc(C(=N)N)cc1" : 2.1 µM

Observed Ki, Coagulation factor X (Homo sapiens, UniProt P00742), "N=C(N)c1ccc(CNC(=O)CNC(=O)[C@@H](CO)NS(=O)(=O)c2ccc3ccccc3c2)cc1" : 28 µM

====

outcome_measure: Ki (µM)
Quick reminder: number only, in µM, skip the unit.

Observed Ki, Urokinase-type plasminogen activator (Homo sapiens, UniProt P00749), C[C@H](NC(=O)[C@@H](CO)NS(=O)(=O)CCc1ccccc1)C(=O)N[C@H]1CCCN(C(=N)N)C1O (stereo partly specified) : 3.1

====

This section lists Ki readings for Serine protease 1 (Homo sapiens, UniProt P07477).
Quick reminder: number only, in nM, skip the unit.

Ki recorded for this compound, "N=C(N)c1ccc(CNC(=O)CNC(=O)[C@@H](N)CCC(=O)O)cc1" , is 5000

Ki recorded for this compound, "N=C(N)c1ccc(CNC(=O)CNC(=O)[C@@H](CO)NS(=O)(=O)CCc2ccccc2)cc1" , is 900

Ki recorded for this compound, "CC(C)(C)OC(=O)N[C@H](CO)C(=O)NCC(=O)NCc1ccc(C(=N)N)cc1" , is 4500

Ki recorded for this compound, "C[C@H](NC(=O)[C@@H](CO)NS(=O)(=O)Cc1ccccc1)C(=O)NCc1ccc(C(=N)N)cc1" , is 3.3

Ki recorded for this compound, "N=C(N)c1ccc(CNC(=O)CNC(=O)[C@H](N)CO)cc1" , is 6900

Ki recorded for this compound, "N=C(N)c1ccc(CNC(=O)CNC(=O)[C@@H](CO)NC(=O)OCc2ccccc2)cc1" , is 4300

Ki recorded for this compound, "N=C(N)c1ccc(CNC(=O)CNC(=O)[C@@H](CO)NS(=O)(=O)CC2CCCCC2)cc1" , is 110

Ki recorded for this compound, "N=C(N)c1ccc(CNC(=O)CNC(=O)[C@@H](CO)NS(=O)(=O)Cc2ccccc2)cc1" , is 150

Ki recorded for this compound, "CC(C)COC(=O)OC[C@@H](NS(=O)(=O)Cc1ccccc1)C(=O)N[C@@H](C)C(=O)NCc1ccc(C(=N)N)cc1" , is 4.8

Ki recorded for this compound, CC(C)(C)OC(=O)NC(CCC(=O)O)C(=O)NCC(=O)NCc1ccc(C(=N)N)cc1 (stereo unspecified) , is 2800

Ki recorded for this compound, "N=C(N)c1ccc(CNC(=O)CNC(=O)[C@@H](CO)NS(=O)(=O)c2ccc3ccccc3c2)cc1" , is 1800

src = ChEMBL document CHEMBL1135855
